Measured values drawn from PubChem BioAssay (NCI) for this set.

Entries and their TGI
Test system: MCF7 breast
assay comment: NCI tumour cell line growth inhibition, 48 h

COc1ccc(C2=NN(C=O)C(c3ccc(OS(=O)(=O)c4ccc(C)cc4)c(OC)c3)C2)cc1 (configuration not stated) : > 100 µM
COc1ccc(N2C(=O)C(=O)N(C)C2=O)c2ccccc12 : > 10 µM
O=C1NC(=S)N/C1=C\c1ccc(Cl)cc1 : > 100 µM
Cc1cn(CC2=NC3CCCCC3N2)c(=O)[nH]c1=O (configuration not stated) : > 100 µM
Fc1ccc(Oc2nc3ccccc3nc2-c2ccccc2)cc1 : > 100 µM
CCOc1cc(/C=N/c2nc3cc4sc(/N=C/c5ccc(O)c(OCC)c5)nc4cc3s2)ccc1O : > 100 µM
O=c1c2ccccc2nc2n1CCc1c-2[nH]c2cc3c(cc12)OCO3 : > 25 µM
O=C1CC(C(=O)O)Cc2c(Br)ccc(O)c21 (configuration not stated) : > 100 µM

Okay, now this compound:
stdin: What TGI value was documented for this compound, O=c1ccc2c(Cl)cccc2o1 ?
stdout: > 100 µM

----------
Tested on: M14 melanoma
assay comment: NCI tumour cell line growth inhibition, 48 h
assay endpoint: TGI

Recorded TGI, per entry:
CCSc1nc(NC(C)c2ccccc2)c2cnn(CO)c2n1 (stereo not drawn) : > 100 µM
Cn1nc(-c2ccccc2)c2c(/C=C/c3ccc(Cl)cc3)onc2c1=O : > 100 µM

Okay, now this compound:
stdin: What TGI value was documented for this compound, C=C1C2C[C@@H]3O[C@H]4C[C@H]5O[C@@]6(C[C@@H]7O[C@]8(C[C@H](C)[C@@H]9O[C@@H]%10CC(C=O)O[C@@H]%10C[C@@H]9O8)C[C@H](C)[C@@H]7O6)C[C@H]5O[C@H]4[C@H](C)[C@H]3OC(=O)C[C@H]3CC[C@@H]4OC5[C@H]6O[C@]7(CC[C@H]8CC(=C)[C@H](CC[C@@H](C[C@H]1C)O2)O8)CC6O[C@@H]5[C@@H](O7)[C@H]4O3 (stereo partly drawn) ?
stdout: > 1 µM

----------
Entries and their TGI
Tested on: K-562 leukemia
assay comment: NCI tumour cell line growth inhibition, 48 h

Recorded TGI, per entry:
CS(=O)(=O)c1ccc2c(c1)C(=O)c1c-2n(CCCBr)c(=O)c2cc([N+](=O)[O-])ccc12 : > 100 µM
COC(=O)C1CC(c2ccc(Cl)cc2)=NO1 (centres undefined) : > 100 µM
COC(=O)CN=C1NC(=S)N(Cc2ccc(OC)cc2)C12CCCC2 : > 100 µM

Okay, now this molecule:
stdin: What TGI value was documented for this molecule, Clc1ccc(-c2nc3c(-c4ccccc4)nc(-c4ccccc4)cn3c2-c2ccc(Cl)cc2)cc1 ?
stdout: > 100 µM

----------
Tested on: NCI-H226 lung
assay comment: NCI tumour cell line growth inhibition, 48 h
Where a SMILES comes first, the peptide text is derived from it. The star is where a group is joined. Boc = CC(C)(C)OC(=O)*
Entries and their TGI

Recorded TGI, per entry:
OCC1C2CCC3(OCCO3)C12 (stereo not drawn) : > 100 µM
CC(NC(=O)C1CCCN1C(=O)CNC(=O)OC(C)(C)C)C(=O)O (stereo not drawn) (Boc-Gly-Pro-Ala-OH; configuration not given here) : > 100 µM
COc1ccc(NC(=S)C#N)cc1 : > 100 µM
CCOc1cc(/C=N/c2nc3cc4sc(/N=C/c5ccc(O)c(OCC)c5)nc4cc3s2)ccc1O : > 100 µM
CC(C(=O)NCCNC(=O)CCCC(=O)N(C)O)C(=O)NCCNC(=O)CCCC(=O)N(C)O : > 100 µM

Okay, now this compound:
stdin: What TGI value was documented for this compound, COC(=O)CNC(=O)CNC(=O)CSc1nnc(COc2ccc(Cl)cc2)n1-c1ccccc1 ?
stdout: > 100 µM

----------
System: UACC-62 melanoma
assay comment: NCI tumour cell line growth inhibition, 48 h
Entries and their TGI
State just the number; it will be interpreted in µM.

Cc1cc2c(C(=O)NCC#N)cccc2n1-c1nc2c(c(NCc3ccccc3)n1)CCCC2 : 0.482
CC(=O)c1cc2c(s1)C(=O)c1ccsc1C2=O : 0.688
COc1ccc(CN2C(=O)/C(=C\C(=O)c3ccc(OCCN4CCCC4)cc3)c3ccccc32)cc1 : 3.38
CCC(=O)N(c1ccccc1)C(C)CN1CCC(O)(c2cccc(C(F)(F)F)c2)CC1 (centres undefined) : 49.1
CCCCC(O)(c1ccccc1)C(O)(c1ccccc1)c1c(F)c(F)c(F)c(F)c1F (centres undefined) : 39.2

stdin: What TGI value was documented for this molecule, CCC1(OC(=O)CNC)C(=O)OCc2c1cc1n(c2=O)Cc2cc3ccccc3nc2-1 (centres undefined) ?
stdout: 0.0186

stdin: What TGI value was documented for this molecule, COC(=O)CNC(=O)CNC(=O)CSc1nnc(COc2ccc(Cl)cc2)n1-c1ccccc1 ?
stdout: 33.5

----------
Test system: OVCAR-8 ovarian
assay comment: NCI tumour cell line growth inhibition, 48 h
assay endpoint: TGI

COc1ccc(/C=C2\C[C@H]3[C@@H]4CC=C5C[C@@H](OC(C)=O)CC[C@]5(C)[C@H]4CC[C@]3(C)C2=O)cc1OC : > 100 µM
COC(=O)C(=NNc1ccccc1[N+](=O)[O-])C(=O)OC : > 100 µM
CO[C@H](C(=O)O[C@H]1C(=O)N2CC[C@@H]3CCC[C@H]1C32C)c1ccccc1 (stereo partly specified) : > 100 µM
COc1ccc(CN2C(=O)/C(=C\C(=O)c3ccc(OCCN4CCCC4)cc3)c3ccccc32)cc1 : 5.78 µM

stdin: What TGI value was documented for this compound, N#CC(C(=O)CCC(=O)Nc1ccc(Cl)cc1)c1ccc(Cl)cc1 (stereo unspecified) ?
stdout: > 100 µM

stdin: What TGI value was documented for this compound, O=C1C(Cl)=C(N2CCN(CCOCCO)CC2)C(=O)c2ccccc21 ?
stdout: 28.2 µM

stdin: What TGI value was documented for this compound, CCOC(=O)c1cc(-c2ccc([N+](=O)[O-])cc2)c([N+](=O)[O-])[nH]1 ?
stdout: > 10 µM

stdin: What TGI value was documented for this compound, O=C(CC(Cc1ccccc1)c1ccc(Oc2ccccc2)cc1)Nc1cccc(Cl)c1 (stereo unspecified) ?
stdout: > 100 µM

stdin: What TGI value was documented for this compound, Cc1cccc2c(N)c3cccc(C(=O)NCC[N+](C)(C)Cc4ccc(S(C)(=O)=O)cc4)c3nc12 ?
stdout: > 100 µM

stdin: What TGI value was documented for this compound, CC1OC(OC2C(OC(=O)[C@]34CCC(C)(C)CC3C3=CCC5[C@@]6(C)C[C@H](O)[C@H](OC7OC(COC8OC(CO)C(O)C(O)C8O)C(O)C(O)C7O)[C@@](C)(C(=O)O)C6CC[C@@]5(C)C3(C)CC4)OCC(O)C2O)C(O)C(O)C1OC1OCC(O)C(O)C1O (stereo partly specified) ?
stdout: > 100 µM

stdin: What TGI value was documented for this compound, Cc1cc(O[C@@H]2O[C@@H](C)[C@H](O)[C@@H](O)[C@H]2O)c2c3c(c(O[C@@H]4O[C@@H](C)[C@H](O)[C@@H](O)[C@H]4O)cc2c1)C(=O)c1c(O)cccc1C3=O ?
stdout: > 30 µM

----------
Tested on: HOP-92 NSCLC
assay comment: NCI tumour cell line growth inhibition, 48 h
assay endpoint: TGI

CCOc1cc(/C=N/c2nc3cc4sc(/N=C/c5ccc(O)c(OCC)c5)nc4cc3s2)ccc1O : > 100 µM

stdin: What TGI value was documented for this compound, CC1NC(C(=O)O)Cc2cc(O)c(O)cc21 (configuration not stated) ?
stdout: > 100 µM

stdin: What TGI value was documented for this compound, CC1(C)CCCC2CC2CCC(C)(C)C1=O (configuration not stated) ?
stdout: > 100 µM

stdin: What TGI value was documented for this compound, CCCCCCc1cc2cc(C(=O)NCc3ccccc3)c(=N)oc2cc1O ?
stdout: > 100 µM

stdin: What TGI value was documented for this compound, CN(CC(=O)O)CC(=O)O ?
stdout: > 100 µM

stdin: What TGI value was documented for this compound, CN1C(=O)/C(=C2\S/C(=N\c3nnc(-c4ccccc4)o3)NC2=O)c2ccccc21 ?
stdout: > 100 µM

stdin: What TGI value was documented for this compound, CCOC(=O)NC(=O)c1cn(CCCCCCCCCCC(=O)NCCCN2CCN(CCCNC(=O)CCCCCCCCCCn3cc(C(=O)NC(=O)OCC)c(=O)[nH]c3=O)CC2)c(=O)[nH]c1=O ?
stdout: > 100 µM

stdin: What TGI value was documented for this compound, C1=Nc2ccccc2Cn2nncc21 ?
stdout: > 100 µM

stdin: What TGI value was documented for this compound, CC(C(=O)NCCNC(=O)CCCC(=O)N(C)O)C(=O)NCCNC(=O)CCCC(=O)N(C)O ?
stdout: > 100 µM

----------
System: TK-10 renal
assay comment: NCI tumour cell line growth inhibition, 48 h
assay endpoint: TGI

Cc1ccc(S(=O)(=O)OCC(=O)Nc2ccc(C(=O)O)c(O)c2)cc1 : 464 µM
COc1ccc(OC)c(N=Cc2cc(OC)c(OC)c(OC)c2)c1 : > 100 µM

Okay, now this compound:
stdin: What TGI value was documented for this compound, CC1(c2nc3ccccc3[nH]2)CCC(C#N)C(C)(C)O1 (stereo not drawn) ?
stdout: > 100 µM
